Measured koff of individual entries
- Target Of Assay: T1, recombinant extracellular domain of CD38 (human, UniProt P28907 43-300)
- T1 construct: also called CD38 extracellular domain; AtaGenix ATMP00140HU
- Assay Text: Biacore SPR
Could you give the number and then its unit, please?

FTL004-hu-18 (antibody, human IgG1, kappa, V domains shown, also called FLT004-hu-18; FTL004-hum-18) VH: EVQLVQSGAEVKKPGATVKISCKASGYTFTDYNVHWIQQAPGKGLEWIGYFYPRNGATHYNQKFTGRATLTADTSTDTAYMEISSLRSEDTAVYFCARGETPGTFPYWGQGTLVTVSS VL: DIQLTQSPSSLSASVGDRVTITCQASESVDNFGITFMHWYQQKPGKAPKLLIYRASNLETGVPSRFSGSGSRTDFTFTISSLQPEDIATYYCQQSSKDPRTFGQGTKLEIKR	0.000788 s⁻¹

# input for lookup
Ask: What koff value was documented for this binder, FTL004-hu-17 (antibody, human IgG1, kappa, V domains shown, also called FLT004-hu-17; FTL004-hum-17) VH: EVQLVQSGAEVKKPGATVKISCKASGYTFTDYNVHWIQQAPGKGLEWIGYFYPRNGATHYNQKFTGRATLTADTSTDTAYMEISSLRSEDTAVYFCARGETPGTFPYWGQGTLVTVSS VL: DIQLTQSPSSLSASVGDRVTITCRASESVDNFGITFMHWYQQKPGKAPKLLIYRASNLESGVPSRFSGSGSRTDFTLTISSLQPEDFATYYCQQSSKDPRTFGQGTKLEIKR ?
Result: 0.000848 s⁻¹
